Each entry below lists one item and its recorded GI50 value.
Tested on: TK-10 renal
PROCEDURE SUMMARY: NCI tumour cell line growth inhibition, 48 h

                              line_notation  experimental_value
0  CN(C)CCNC(=O)c1ccc2c(c1)oc1cc3ccccc3c(=O)n12             12.9 µM
1  CN(C)S(=O)(=O)c1cccc(C(=O)Nc2nc(-c3ccc(F)c(F)c3)cs2)c1             18.1 µM
2           OCc1c(-c2cccs2)oc(-c2cccs2)c1CO             10.2 µM
3  CCCC(=O)Oc1ccc(/C(=C(\C)c2ccc(Cl)cc2)c2ccc(OCCN(CC)CC)cc2)cc1             5.29 µM

Proceeding to the next molecule to report its GI50.
Lookup result for Nc1[nH]nc(Nc2ccccc2)c1-c1nc2ccccc2s1 ; measured GI50: 3.02 µM

====

Test system: 786-0 renal
PROCEDURE SUMMARY: NCI tumour cell line growth inhibition, 48 h; in the data active = GI50 below about 0.43 µM; inactive = the rest
Hello, when you answer, please use one of the following outcomes: t for active, f for inactive

Known results for molecules:
MOLECULE	TESTED TARGET	CLASS
O=C(O)CCCN1C(=O)/C(=C/C(Cl)=C/c2ccccc2)SC1=S	786-0 renal	f
CCC/C=C/C=C/C(=O)OC1/C(=C/C(=O)OC)CC2CC(C(C)O)OC(=O)CC(O)CC3CC(OC(C)=O)C(C)(C)C(O)(CC4C/C(=C/C(=O)OC)CC(/C=C/C(C)(C)C1(O)O2)O4)O3 (centres undefined)	786-0 renal	f
COc1ccc(-n2nc(C)c3c(Nc4ccc(NC(=O)Nc5cccc(C(F)(F)F)c5)cc4)ncnc32)cc1	786-0 renal	f
CN[C@@H](C)C(=O)N[C@H](C(=O)N1CCC[C@H]1c1nc(C(=O)c2ccc(F)cc2)cs1)C1CCCCC1	786-0 renal	f
COc1cc(/C=C/C(=O)c2c(C)n([O-])c3ccccc3[n+]2=O)cc(OC)c1OC	786-0 renal	f

Prompt: For COc1ccc(CCN2CCCn3c2nc2ccccc2c3=O)cc1 , what call appears in the results of this test?
Completion: t

Prompt: For COc1cc(C[C@H]2COC(=O)[C@]2(O)Cc2ccc(OCc3ccccc3)c(OC)c2)ccc1OCc1ccccc1 , what call appears in the results of this test?
Completion: f

Prompt: For CN(C)Cc1ccc(NC(=O)c2cncc(C#Cc3cnc(N)c4ncccc34)c2)cc1C(F)(F)F , what call appears in the results of this test?
Completion: f

Prompt: For CC(C)(C)OC(=O)N(CCCCN(CCCn1c2c(c3ccccc3c1=O)C(=O)c1ccccc1-2)C(=O)OC(C)(C)C)CCCn1c2c(c3ccccc3c1=O)C(=O)c1ccccc1-2 , what call appears in the results of this test?
Completion: f

====

System: CCRF-CEM leukemia
PROCEDURE SUMMARY: NCI tumour cell line growth inhibition, 48 h
MEASURED METRIC: TGI

Take a look at these entries with their results.
>>> df
                              line_notation      tested_target  measured_metric  experimental_value
0  COc1cc(C[C@@]2(C)[C@@H]3CCC[C@H](CO)[C@@]3(C)CC[C@@H]2C)c(Cl)c(OC)c1  CCRF-CEM leukemia              TGI            > 100 µM
1    Cc1c(C)c2cc3c(=O)c(CCl)coc3c(C)c2oc1=O  CCRF-CEM leukemia              TGI            > 100 µM

Proceeding to the next compound to report its TGI.
For COc1ccccc1/C=C1\C(=O)N(C(=O)Cc2ccccc2)N=C1C on CCRF-CEM leukemia, measured TGI was > 100 µM

====

Each entry below lists one item and its recorded TGI value.
Tested on: SF-295 CNS
PROCEDURE SUMMARY: NCI tumour cell line growth inhibition, 48 h

Take a look at these entries with their results.
MOLECULE	TGI
COCN1COCN(C)C1=O	> 100 µM
N=c1oc2cc(O)ccc2cc1C(=O)Nc1ccccn1	> 100 µM
N=c1oc2ccc3ccccc3c2cc1-c1nc2ccccc2c(=O)[nH]1	> 100 µM
CC(O)C(CO)NC(=O)C1CSSCC(NC(=O)C(N)Cc2ccccc2)C(=O)NC(Cc2ccccc2)C(=O)NC(Cc2c[nH]c3ccccc23)C(=O)NC(CCCCN)C(=O)NC(C(C)O)C(=O)N1 (stereo unspecified)	> 100 µM
CNC(=O)[C@H](Cc1c[nH]c2ccccc12)NC(=O)[C@@H](CC(=O)NO)CC(C)C	> 25 µM

Lookup result for CN1CCN(C2=C(Cl)C(=O)c3ccccc3C2=O)CC1 ; measured TGI: 15.9 µM

====

Each entry below lists one item and its recorded TGI value.
Test system: RPMI-8226 leukemia
PROCEDURE SUMMARY: NCI tumour cell line growth inhibition, 48 h

Take a look at these entries with their results.
>>> print(df.to_string())
                                   compound       tested_target  measured_metric  experimental_value
0                       O=S(=O)(F)Cc1ccccc1  RPMI-8226 leukemia              TGI            > 100 µM
1  COc1ccc(/C=C\c2cc(OC)c(OC)c(OC)c2)cc1NC(=O)/C=C/c1ccc(OC)c(OC)c1  RPMI-8226 leukemia              TGI            > 100 µM
2  Cc1cc(NC(=O)NCCOc2ccc(N3C(N)=NC(N)=NC3(C)C)cc2Cl)ccc1S(=O)(=O)F  RPMI-8226 leukemia              TGI             > 55 µM
3  CCOC(CBr)OC1C(=O)OCC1(C)C (stereo unspecified)  RPMI-8226 leukemia              TGI            > 100 µM
4  O=C(Nc1ccccc1C(=O)NCc1ccccc1)/C(=C/c1ccccc1O)NC(=O)c1ccccc1  RPMI-8226 leukemia              TGI            > 100 µM

Lookup result for CN(C)CCNC(=O)c1ccc2c(c1)oc1cc3ccccc3c(=O)n12 ; measured TGI: > 100 µM

====

Tested on: SNB-75 CNS
PROCEDURE SUMMARY: NCI tumour cell line growth inhibition, 48 h
MEASURED METRIC: TGI

Take a look at these entries with their results.
                                   compound  experimental_value
0  O=C(O)c1cccc([As]=[As]c2cccc(C(=O)O)c2)c1 (stereo not drawn)            > 100 µM
1  COC(=O)[C@@]12CSC[C@]1(C(=O)OC)N[C@@H](c1ccccc1O)C2            > 100 µM

Proceeding to the next compound to report its TGI.
Lookup result for CCCCn1c(=O)[nH]c2c(N)ncnc21 ; measured TGI: > 100 µM

====

Tested on: SK-MEL-5 melanoma
PROCEDURE SUMMARY: NCI tumour cell line growth inhibition, 48 h
Each entry below lists one item and its recorded TGI value.

Take a look at these entries with their results.
COMPOUND	MEASURED METRIC	EXPERIMENTAL VALUE
COc1c(C(=O)/C(=N/Nc2ccc(C(=O)O)cc2)C(C)=O)c(O)cc2occc12	TGI	> 100 µM
OCc1c(-c2cccs2)oc(-c2cccs2)c1CO	TGI	> 100 µM
Cc1[nH]c(=O)nc(N/N=C/c2c3ccccc3c(Cl)c3ccccc23)c1C(=O)Nc1ccc(Cl)cc1	TGI	> 100 µM
CCN1C(=O)N(CC)C2C1NN=c1s/c(=C3\C(=O)Nc4ccccc43)c(=O)n12 (configuration not stated)	TGI	> 100 µM
O=C(O)c1ccc2c(O)c(O)ccc2c1	TGI	35.6 µM

Lookup result for COc1cc(/C=C/C(=O)CC(=O)/C=C/c2cc(C)c(O)c(OC)c2)cc(C)c1O ; measured TGI: > 100 µM

Lookup result for Cc1cc(NC(=O)NCCOc2ccc(N3C(N)=NC(N)=NC3(C)C)cc2Cl)ccc1S(=O)(=O)F ; measured TGI: 11.4 µM

Lookup result for O=NNc1ccc(-c2ccccc2)cn1 ; measured TGI: 31.7 µM

Lookup result for CCc1cn2c(/C=N/N=C(N)N)c(-c3cc(C)c(Cl)cc3Cl)nc2s1 ; measured TGI: 2.99 µM

Lookup result for Cc1cccc(CNc2c3ccccc3nc3ccccc23)c1 ; measured TGI: 3.14 µM

Lookup result for CC(=O)C1=C(C)N(c2ccccc2)C2(O)C3=C(C(=O)c4ccccc4C3=O)C(O)=CC12Cl (configuration not stated) ; measured TGI: 9.04 µM

Lookup result for O=C1c2c(c3c4cc(F)ccc4oc3c3[nH]c4ccccc4c23)C(=O)N1O ; measured TGI: 2.6 µM

====

Tested on: SK-OV-3 ovarian
PROCEDURE SUMMARY: NCI tumour cell line growth inhibition, 48 h
Each entry below lists one item and its recorded TGI value.

MOLECULE	TESTED TARGET	TGI
Cc1ccc([N+](=O)[O-])cc1S(=O)(=O)Nc1ccc(C2=NN(S(=O)(=O)c3cc([N+](=O)[O-])ccc3C)C(c3cccs3)C2)cc1 (configuration not stated)	SK-OV-3 ovarian	> 100 µM

Lookup result for Nc1n[n+]([O-])c2ccc(Cl)cc2[n+]1[O-] ; measured TGI: 52.9 µM

Lookup result for O=C(O)c1ccc2c(O)c(O)ccc2c1 ; measured TGI: > 72.5 µM

Lookup result for COc1ccc(-c2nc(NC(=O)CS(=O)(=O)c3ccc(F)cc3)sc2C)cc1 ; measured TGI: > 100 µM

Lookup result for Cc1[nH]n(-c2nc(-c3ccccc3)cc(=O)[nH]2)c(=O)c1CCO ; measured TGI: > 100 µM

Lookup result for O=C1c2ccccc2C(=O)c2c1ccc1conc21 ; measured TGI: 13.3 µM

Lookup result for COc1ccc2c(=O)c(-c3cc(OC)c(OC)cc3OC)coc2c1 ; measured TGI: > 44.1 µM

Cited source for all entries: PubChem BioAssay (NCI)
